# Target: T1, thermolysin-cleaved EBOV GP on Jurkat-GP cells (cleaved GP) (Zaire ebolavirus, Makona (GP1 core …, strain))
# T1 chain 1: not shown
# T1 chain 2: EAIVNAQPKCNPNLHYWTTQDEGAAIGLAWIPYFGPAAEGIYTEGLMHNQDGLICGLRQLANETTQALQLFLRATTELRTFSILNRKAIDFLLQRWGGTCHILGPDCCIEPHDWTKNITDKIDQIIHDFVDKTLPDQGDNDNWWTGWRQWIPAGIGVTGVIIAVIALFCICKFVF
Measurement kind: binding result

Binder | Result value
5.6.c3053 (antibody, V domains shown) VH: QVQLVESGGGLVQPGRSLRLSCAASGFTFTNYGMQWVRQGPGKGLEWVALIWYDGYSKYYVDSVKGRFTISRDNSKNTLYLEMNSLRAEDTAVYYCARGNGYSSGWLDNWGQGTLVTVSS VL: DIQMTQSPSTLSASVGDRVTITCRASQSIDNWLAWYQQKPGKAPKVLIYKASSLESGVPSRFSGSASGTEFTLTISSLQPDDFATYYCQHYNSYSGTFGQGTKVEIK | binds
5.6.c4011 (antibody, V domains shown) VH: QVQLQESGPGVVKPSETLSLTCTVSGASMTGYYWSWIRQPPGKGLEWIGYIFYSGSTNYNPSLKSRATISVDTSKKQFSLKLSSVTAADTAVYYCARSVVVIENDAFDIWGQGTMVTVSS VL: DIQMTQSPSSLSASVGDRVTITCRASQSTTSYLNWYQQKPGKAPKLLIFAASTLQSGVPSRFSGSGSGTDFTLTISSLQPEDFATYYCQQSYSAPYTFGQGTKLEIK | binds
5.6.c2692 (antibody, V domains shown) VH: QVTLRESGPALVKSTQTLTLTCTFSGFSLSTSGMCVSWIRQPPGKALEWLALIDWDDGKYYSTSLKTRLTISKGTSKNQVVLTMTNMDPVDTATYYCARIRYTSDWFYDAFDIWGQGTMVTVSS VL: ETVMTQSPATLSVSPGERATLSCRASQSVNSNLAWYQQRPGQAPRLLISGASTRATGIPARFSGSGSGTEFTLTISSLQSEDFAVYYCQQYNDWPPLTFGGGTKVEIK | binds
